- Assay Notes: folding enthalpy; higher = less favourable; fluorescence melt of hairpins on a sequencing array, two-state fit
- Particulars: sodium 0.088 M
Quantity Measured: folding enthalpy (kcal/mol)
Entry rule: numbers only, all in kcal/mol.

# Polymer Sequence, folding enthalpy / kcal/mol
rows = [
    ("GCGTACTTACGC ((((....))))", -26.1),
    ("GTACCGCGAAAGCGCTAC (((.(((....))).)))", -12.2),
    ("GATCACGGCGTGATC ((((((...))))))", -38),
    ("GAGGTCGGAAACGGCCTC ((((.((....)).))))", -41.8),
    ("GTTCTAGCGAAAGCTAAC (((..(((....))))))", -9.98),
]

Turning to the following sequence.
Query block: Query (sequence): GTATCGGGAAACCGACAC ((.((((....)))).)) ; field requested: folding enthalpy
Result block: -19.5

* * *

sequences and their reported folding enthalpy
- Assay Notes: folding enthalpy; higher = less favourable; fluorescence melt of hairpins on a sequencing array, two-state fit
- Particulars: sodium 0.088 M
Entry rule: numbers only, all in kcal/mol.

As a guide, the following entries are already answered.
# Polymer Sequence, Unit Abbreviation, folding enthalpy
data = [
    ("GCGCGGCGAAAGCAGAGC ((.(.((....)).).))", "kcal/mol", -25.1),
    ("GCCGGAGGAAACTCTGGC (((.(((....))).)))", "kcal/mol", -34.6),
    ("GTCTACGAAAGTAGTGAC ((((((....)))..)))", "kcal/mol", -14.3),
]

Query block: Query (sequence): GGGTCGGGAAACTGGCCC (((.(.(....).).))) ; field requested: folding enthalpy
Result block: -35.8

Query block: Query (sequence): GGGGGTGGAAACACCTCC ((.((((....)))).)) ; field requested: folding enthalpy
Result block: -29.1

* * *

- Assay Notes: folding enthalpy; higher = less favourable; fluorescence melt of hairpins on a sequencing array, two-state fit
- Particulars: sodium 0.088 M
sequences and their reported folding enthalpy
Entry rule: numbers only, all in kcal/mol.

As a guide, the following entries are already answered.
# Polymer Sequence, Quantity Measured, Value
measured = [
    ("GAACAGGGAAACCTGCTC ((.((((....)))).))", "folding enthalpy", -18.8),
    ("GTGGCAGGAAACTGCCGC (.(((((....))))).)", "folding enthalpy", -18.3),
    ("GGCTTCGAAAGAACCGCC ((((((....)))..)))", "folding enthalpy", -21.1),
    ("GCTTAGCGAAAGCTACGC ((.((((....)))).))", "folding enthalpy", -22.4),
    ("GGACTCCCGAAAGGGTCC (((..(((....))))))", "folding enthalpy", -16.8),
]

Query block: Query (sequence): GCTTTGCGAAAGCACGGC ((..(((....)))..)) ; field requested: folding enthalpy
Result block: -16.6

* * *

- Assay Notes: folding enthalpy; higher = less favourable; fluorescence melt of hairpins on a sequencing array, two-state fit
- Particulars: sodium 0.088 M
sequences and their reported folding enthalpy
Entry rule: numbers only, all in kcal/mol.

As a guide, the following entries are already answered.
# Polymer Sequence, Quantity Measured, Unit Abbreviation, Value
measured = [
    ("GTAGGTGGAAACGCCTAC (((((.(....).)))))", "folding enthalpy", "kcal/mol", -32.8),
    ("GATCGCCCTTGCGATC ((((((....))))))", "folding enthalpy", "kcal/mol", -29.8),
    ("GGGGACGAAAGTCGTCCC ((((((....)))..)))", "folding enthalpy", "kcal/mol", -20.8),
    ("GAGTGCGAAAGCAGCCTC ((((((....)))..)))", "folding enthalpy", "kcal/mol", -13.2),
    ("GGGCGCCGAAAGGCCCCC (((.(((....))).)))", "folding enthalpy", "kcal/mol", -14),
]

Query block: Query (sequence): GTATGCGAAAGCATATAC ((((((....)))..))) ; field requested: folding enthalpy
Result block: -11

* * *

- Assay Notes: folding enthalpy; higher = less favourable; fluorescence melt of hairpins on a sequencing array, two-state fit
- Particulars: sodium 0.088 M
Reported folding enthalpy maps to class as: low = under -30 kcal/mol, middle = from -30 kcal/mol up to -20 kcal/mol, high = -20 kcal/mol and over

Query block: Band for the recorded folding enthalpy of GTCCCTGGAAACGGGGAC (((((.(....).))))) ?
Result block: low

Query block: Band for the recorded folding enthalpy of GTTCGGGGAAACCCGAAC (((((((....))))))) ?
Result block: low

Query block: Band for the recorded folding enthalpy of GATACAGCGAAAGCTATC (((..(((....)))))) ?
Result block: high

Query block: Band for the recorded folding enthalpy of GATCGTCTTAACGATC ((((((....)))))) ?
Result block: low

Query block: Band for the recorded folding enthalpy of GAAGTAGGAAACCACTTC (((((.(....).))))) ?
Result block: middle

Query block: Band for the recorded folding enthalpy of GAGGCCGAAAGGCGACTC ((((((....)))..))) ?
Result block: high

Query block: Band for the recorded folding enthalpy of GTCAGCGAAAGCTACGAC ((((((....)))..))) ?
Result block: high

Query block: Band for the recorded folding enthalpy of GCGGAAGGAAACTTCCAC (.(((((....))))).) ?
Result block: high

Query block: Band for the recorded folding enthalpy of GGGGACGGAAACATCCCC (((((.(....).))))) ?
Result block: low

* * *

- Assay Notes: melting temperature; fluorescence melt of hairpins on a sequencing array, two-state fit, raised by 9.35 °C to match UV melts
- Particulars: sodium 0.088 M
Quantity Measured: Tm (°C)
Entry rule: numbers only, all in °C.

# Polymer Sequence, Tm / °C
data = [
    ("GTATTGGGAAACCGATAC ((((.((....)).))))", 43.6),
    ("GGACTGCGAAAGCACTCC (((.(((....))).)))", 38.9),
    ("GTGCATGGAAACACGCAC ((((.((....)).))))", 47.7),
    ("GATCAGTGCACTGATC ((((((....))))))", 56.3),
    ("GCGCTGGCGAAAGCCCGC (((..(((....))))))", 55.5),
    ("GGTATCGAAAGATCGACC ((((((....)))..)))", 27.8),
    ("GCATAACGAAAGTTTTGC (((.(((....))).)))", 48.8),
    ("GCCAACGAAAGTTCGGC ((((((....))).)))", 51.2),
]

Query block: Query (sequence): GTTAGGCGAAAGCCAAC (((.(((....)))))) ; field requested: Tm
Result block: 50.7

Query block: Query (sequence): GCGAACGAAAGTTACCGC ((((((....)))..))) ; field requested: Tm
Result block: 37.7

Query block: Query (sequence): GCCTTCGAAAGAAATGGC ((((((....)))..))) ; field requested: Tm
Result block: 38.5

Query block: Query (sequence): GTCATGGGAAACTATGGC (.(((.(....).))).) ; field requested: Tm
Result block: 32.1

* * *

- Assay Notes: melting temperature; fluorescence melt of hairpins on a sequencing array, two-state fit, raised by 9.35 °C to match UV melts
- Particulars: sodium 0.088 M
Note to self: values exactly at 50 °C are Met. So Tm at or above 50 °C is Met, below is Not met.

Recorded results for 6 sequences are shown here.
# Polymer Sequence, Group Label
records = [
    ("GATCGAATAATCGATC ((((((....))))))", "Not met"),
    ("GGCATAGGAAACTATGCC (((((((....)))))))", "Met"),
    ("GCGGGGTCGAAAGACCGC (((..(((....))))))", "Met"),
    ("GATCTGCGCCCAGATC ((((((....))))))", "Not met"),
    ("GATCCGGGACCGGATC ((((((....))))))", "Met"),
    ("GACGTCCGAAAGGAGGTC (((.(((....))).)))", "Met"),
]

Query block: // inclusive: Tm at least 50 °C? input: GTGGAGGGAAACCTCTAC ((.((((....)))).))
Result block: Not met

* * *

- Assay Notes: melting temperature; fluorescence melt of hairpins on a sequencing array, two-state fit, raised by 9.35 °C to match UV melts
- Particulars: sodium 0.088 M
Note to self: values exactly at 50 °C are criterion met. So Tm at or above 50 °C is criterion met, below is criterion not met.

# Polymer Sequence, Group Label
rows = [
    ("GTTAGCGAAAGCTACAAC ((((((....)))..)))", "criterion not met"),
]

Query block: // inclusive: Tm at least 50 °C? input: GCGTGAGTACGC ((((....))))
Result block: criterion met

Query block: // inclusive: Tm at least 50 °C? input: GATCAGTCGACTGATC ((((((....))))))
Result block: criterion met

Query block: // inclusive: Tm at least 50 °C? input: GCAGGCGAAAGCCGTGC ((((((....))).)))
Result block: criterion met

Query block: // inclusive: Tm at least 50 °C? input: GACTCGGGAAACTGGGTC (((.(.(....).).)))
Result block: criterion not met
